# Subject Of Test: human secretin receptor (hSCTR) (human, UniProt P47872 23-440)
# Sequence (P47872 23-440): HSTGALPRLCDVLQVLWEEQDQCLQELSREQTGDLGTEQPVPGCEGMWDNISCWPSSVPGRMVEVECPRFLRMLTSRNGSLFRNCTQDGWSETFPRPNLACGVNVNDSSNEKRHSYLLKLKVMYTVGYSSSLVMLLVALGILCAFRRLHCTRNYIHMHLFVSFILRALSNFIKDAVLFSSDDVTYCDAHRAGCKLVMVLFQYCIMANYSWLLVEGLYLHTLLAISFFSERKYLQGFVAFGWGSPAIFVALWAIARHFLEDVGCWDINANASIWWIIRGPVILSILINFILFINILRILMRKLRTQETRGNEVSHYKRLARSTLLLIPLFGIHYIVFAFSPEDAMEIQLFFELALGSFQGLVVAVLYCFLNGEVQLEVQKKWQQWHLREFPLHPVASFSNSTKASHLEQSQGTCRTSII
# Experimental Details: cell-based or functional assay
Numbered stars: 1 amine (or outer) side, 2 acyl side, 3 side chain; on linkers, the order of the positions; unused ones are H or OH. Square brackets hold non-standard residues; d marks the D form. Side chains are listed from the residue outwards. Ends that are not written are not given here. * marks the point of attachment. C20 diacid = O=C(O)CCCCCCCCCCCCCCCCCCC(=O)*; γGlu = O=C(O)[C@H](CCC(=O)[*:2])N[*:1]; AEEA = NCCOCCOCC(=O)O; Aib = CC(C)(N)C(=O)O
Metric: pEC50 hSCTR

H[Aib]EGTFTSDVSYLK([AEEA-AEEA-γGlu-C20 diacid])ETAATQRFLEHLV-NH2 [SEQ ID NO: 4]: 7 -log M
H[Aib]EGTFTSDVSRLK([AEEA-AEEA-γGlu-C20 diacid])EEAAQQRFLEHLV-NH2 [SEQ ID NO: 73]: 7.1 -log M

# evaluate next
Give the reported value of pEC50 hSCTR for this record: H[Aib]WGTFTSDVSYLKEEA[Aib]LQRFLEHLV-NH2 (not fully specified (residue 14)) [SEQ ID NO: 160]
4.6 -log M
